- test-details: Transrepression of RORgammat in anti-CD3/CD28 stimulated human PBMC derived CD4-positive T cells assessed as suppression of T cell differentiation to Th17 cells by measuring reduction in IL-17A level after 7 days by flow cytometry analysis
endpoint-label: IC50

>>> df
                              sample_smiles  observed_result
0  CCS(=O)(=O)c1ccc(CC(=O)Nc2ccc(C(C)(C)C(=O)Nc3ccc(F)cc3F)c(F)c2)cc1            13 nM
1  CCS(=O)(=O)c1ccc(CC(=O)Nc2ccc(C(C)(C)C(=O)Nc3ccc(F)cc3F)cc2)cc1            36 nM
